- PROTOCOL_NOTES: pKa, pI and charge distribution of buffers
- EXPERIMENTAL_SETUP: fraction of dipeptide carrying a net charge in aqueous solution at pH equal to pI
Residues, ends and D or L forms follow the SMILES beside them.
REPORTED_PROPERTY: % salt (%)
Write the number in % without appending the unit.

COMPOUND | NUMERIC_VALUE
N[C@@H](CC(=O)O)C(=O)N[C@@H](Cc1cnc[nH]1)C(=O)O [Asp-His] (H-Asp-His-OH) | 3
N[C@@H](Cc1c[nH]cn1)C(=O)N1CC(O)C[C@H]1C(=O)O (stereo partly drawn) [His-Hydroxyproline] | 22
N[C@@H](CC(=O)O)C(=O)N[C@@H](CC(=O)O)C(=O)O [Asp-Asp] (H-Asp-Asp-OH) | 43
O=C(O)C(Cc1cnc[nH]1)NC(=O)C1CCCN1 (stereo not drawn) [Pro-His] | 11
NC(N)=NCCC[C@H](NC(=O)[C@@H](N)CCC(=O)O)C(=O)O [Glu-Arg] (H-Glu-Arg-OH) | 2
NCCCC[C@H](N)C(=O)N[C@@H](CC(=O)O)C(=O)O [Lys-Asp] (H-Lys-Asp-OH) | 2
NCC(=O)N[C@@H](Cc1cnc[nH]1)C(=O)O [Gly-His] (H-Gly-His-OH) | 22
N[C@@H](Cc1cnc[nH]1)C(=O)N1CCC[C@H]1C(=O)O [His-Pro] | 22

Switching to the query record.
Form field: reported % salt of N[C@@H](Cc1cnc[nH]1)C(=O)NCC(=O)O [His-Gly] (H-His-Gly-OH)
16

###

- PROTOCOL_NOTES: Solubility of dipeptides at their pI
- Type: physicochemical
Residues, ends and D or L forms follow the SMILES beside them.
REPORTED_PROPERTY: Solubility (mM)
Your answer is read as mM, so omit the unit and give the number.

MOLECULE | UNIT_LABEL | Solubility
NCCCC[C@H](N)C(=O)N[C@@H](CC(=O)O)C(=O)O [Lys-Asp] (H-Lys-Asp-OH) | mM | 1000
C[C@H](NC(=O)[C@@H](N)Cc1cnc[nH]1)C(=O)O [His-Ala] (H-His-Ala-OH) | mM | 500
N[C@@H](Cc1cnc[nH]1)C(=O)NCC(=O)O [His-Gly] (H-His-Gly-OH) | mM | 1000
NCCCC[C@H](NC(=O)[C@@H](N)CCC(=O)O)C(=O)O [Glu-Lys] (H-Glu-Lys-OH) | mM | 1000
NCCCC[C@H](N)C(=O)N[C@@H](CCC(=O)O)C(=O)O [Lys-Glu] (H-Lys-Glu-OH) | mM | 500
N[C@@H](Cc1cnc[nH]1)C(=O)N[C@@H](CCC(=O)O)C(=O)O [His-Glu] (H-His-Glu-OH) | mM | 400

GET /values?readout=Solubility&item= CC(C)[C@H](N)C(=O)N[C@@H](Cc1cnc[nH]1)C(=O)O [Val-His] (H-Val-His-OH)
200

Give the measured Solubility of N[C@@H](Cc1cnc[nH]1)C(=O)N[C@@H](CC(=O)O)C(=O)O [His-Asp] (H-His-Asp-OH) .
50

Report Solubility for NCC(=O)N[C@@H](Cc1cnc[nH]1)C(=O)O [Gly-His] (H-Gly-His-OH) please.
1000

###

- PROTOCOL_NOTES: pKa, pI and charge distribution of buffers
Residues, ends and D or L forms follow the SMILES beside them.
Listed here: items and their measured pka A.
In your answer, state the number alone without any accompanying words.

// query pka A value for entry C[C@H](NC(=O)[C@@H](N)Cc1cnc[nH]1)C(=O)O [His-Ala] (H-His-Ala-OH)
2.48

Need pka A, item `N[C@@H](Cc1cnc[nH]1)C(=O)N[C@@H](Cc1c[nH]c2ccccc12)C(=O)O`
3.07

Name the recorded pka A for N[C@@H](Cc1c[nH]c2ccccc12)C(=O)N[C@@H](Cc1cnc[nH]1)C(=O)O [Trp-His] (H-Trp-His-OH) .
2.42

###

- PROTOCOL_NOTES: pKa, pI and charge distribution of buffers
- EXPERIMENTAL_SETUP: fraction of dipeptide carrying a net charge in aqueous solution at pH equal to pI
Residues, ends and D or L forms follow the SMILES beside them.
Binary classification by % salt, with 20% as an inclusive lower bound for satisfied; all other cases are not satisfied.

COMPOUND | CATEGORY
C[C@H](N)C(=O)N[C@@H](Cc1cnc[nH]1)C(=O)O [Ala-His] (H-Ala-His-OH) | satisfied
CSCC[C@H](N)C(=O)N[C@@H](Cc1cnc[nH]1)C(=O)O [Met-His] (H-Met-His-OH) | satisfied

Confirm if % salt reported for the compound CC[C@H](C)[C@H](N)C(=O)N[C@@H](Cc1cnc[nH]1)C(=O)O [Isoleucine-His] (H-Ile-His-OH) is 20% or above.
satisfied

In plain terms: is recorded % salt at least 20% for CC(C)[C@H](NC(=O)[C@@H](N)Cc1cnc[nH]1)C(=O)O [His-Val] (H-His-Val-OH) ?
satisfied

Please check the record NC(=O)C[C@H](NC(=O)[C@@H](N)Cc1cnc[nH]1)C(=O)O [His-Asn] (H-His-Asn-OH) and state if its % salt is at or above 20%.
satisfied

Reported % salt at or above 20%? N[C@@H](Cc1c[nH]c2ccccc12)C(=O)N[C@@H](Cc1cnc[nH]1)C(=O)O [Trp-His] (H-Trp-His-OH)
satisfied

###

- PROTOCOL_NOTES: pKa, pI and charge distribution of buffers
Non-standard residues stand in square brackets, D forms with d. Residues, ends and D or L forms follow the SMILES beside them. Cit = NC(=O)NCCC[C@H](N)C(=O)O
REPORTED_PROPERTY: pka A
API note: the answer field is a bare number with no unit suffix.

Examples with their reported pka A follow.
COMPOUND | pka A
CSCC[C@H](NC(=O)[C@@H](N)Cc1cnc[nH]1)C(=O)O [His-Met] (H-His-Met-OH) | 2.89
NC(=O)NCCC[C@H](N)C(=O)N[C@@H](Cc1c[nH]cn1)C(=O)O [Citrulline-His] (H-[Cit]-His-OH) | 2.42

What value of pka A has been recorded for this entry: CSCC[C@H](N)C(=O)N[C@@H](Cc1cnc[nH]1)C(=O)O [Met-His] (H-Met-His-OH)
2.42

Need pka A, item C[C@@H](O)[C@H](NC(=O)[C@@H](N)Cc1cnc[nH]1)C(=O)O [His-Thr] (H-His-Thr-OH)
2.98

Item NC(=O)NCCC[C@H](NC(=O)[C@@H](N)Cc1c[nH]cn1)C(=O)O [His-Citrulline] (H-His-[Cit]-OH) has what recorded pka A?
3.05

What does the record list as pka A for NCC(=O)N[C@@H](Cc1cnc[nH]1)C(=O)O [Gly-His] (H-Gly-His-OH) ?
2.42

Consider the compound shown here: CC[C@H](C)[C@H](N)C(=O)N[C@@H](Cc1cnc[nH]1)C(=O)O [Isoleucine-His] (H-Ile-His-OH) What is its recorded pka A?
2.42

Param item = NC(=O)C[C@H](NC(=O)[C@@H](N)Cc1cnc[nH]1)C(=O)O [His-Asn] (H-His-Asn-OH) ; retrieve measured pka A.
2.62

What does the record list as pka A for CC[C@H](C)[C@H](NC(=O)[C@@H](N)Cc1cnc[nH]1)C(=O)O [His-Isoleucine] (H-His-Ile-OH) ?
3.13

GET /values?readout=pka A&item= N[C@@H](Cc1cnc[nH]1)C(=O)NCC(=O)O [His-Gly] (H-His-Gly-OH)
2.41

# pka A lookup, item NC[C@H](O)CC[C@H](N)C(=O)N[C@@H](Cc1c[nH]cn1)C(=O)O [Hydroxylysine-His]
2.42

Any idea what its pka A is? The compound is NC(=O)C[C@H](N)C(=O)N[C@@H](Cc1cnc[nH]1)C(=O)O [Asn-His] (H-Asn-His-OH)
2.42

Entry under review: NCCCC[C@H](NC(=O)[C@@H](N)Cc1cnc[nH]1)C(=O)O [His-Lys] (H-His-Lys-OH) . Reported pka A?
3.05

Return reported pka A; argument: `Cn1cncc1C[C@H](NC(=O)CCN)C(=O)O`
2.64

// pka A lookup, key: CC(C)C[C@H](NC(=O)[C@@H](N)Cc1cnc[nH]1)C(=O)O [His-Leu] (H-His-Leu-OH)
3.10

// query pka A value for entry N[C@@H](CO)C(=O)N[C@@H](Cc1cnc[nH]1)C(=O)O [Ser-His] (H-Ser-His-OH)
2.42
